target: Solute carrier family 22 member 4 (Homo sapiens, UniProt Q9H015); experiment: Substrate uptake by the Organic Cation/Carnitine Transporter 1 (OCTN1, SLC22A4) as assessed by the fluorescent FLIPR membrane potential dye in HEK-293 cells stably transfected with SLC22A4 (PubChem AID: 1794816)
Sequence (Q9H015 whole entry): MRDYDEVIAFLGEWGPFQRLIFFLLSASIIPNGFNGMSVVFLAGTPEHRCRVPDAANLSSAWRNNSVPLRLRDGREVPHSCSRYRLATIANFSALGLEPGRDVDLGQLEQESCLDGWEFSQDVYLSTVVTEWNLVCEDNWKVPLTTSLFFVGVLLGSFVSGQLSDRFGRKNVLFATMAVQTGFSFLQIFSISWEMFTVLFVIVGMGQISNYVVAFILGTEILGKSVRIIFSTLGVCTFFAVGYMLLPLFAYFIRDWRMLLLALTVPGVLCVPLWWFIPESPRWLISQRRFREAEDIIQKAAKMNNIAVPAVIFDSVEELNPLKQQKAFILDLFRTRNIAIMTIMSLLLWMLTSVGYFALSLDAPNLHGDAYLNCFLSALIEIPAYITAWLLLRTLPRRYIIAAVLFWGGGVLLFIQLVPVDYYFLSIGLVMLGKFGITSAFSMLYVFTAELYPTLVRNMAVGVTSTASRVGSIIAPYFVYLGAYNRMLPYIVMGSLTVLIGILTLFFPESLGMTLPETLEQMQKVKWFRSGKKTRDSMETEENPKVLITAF
OBSERVABLE: EC50 (µM)
Output spec: scalar in µM, unitless text.

INPUT: # return recorded EC50 for input C[N+](C)(C)[C@@H](Cc1c[nH]c(=S)[nH]1)C(=O)[O-]
OUTPUT: 40
